inhibition at 50 µg/mL: recorded values
# Test system: Fusarium graminearum
# assay.info: Antimicrobial activity against Gibberella zeae at 50 ug/mL by mycelium growth rate method
# Format: functional
Returns: string containing the numeric result and its unit.

Use these answered entries as a reference point.
O=C(NOCc1ccc(Cl)nc1)c1cc(Br)c(Br)[nH]1 | 0%
NC(=O)c1ccccc1N [ANTHRANILAMIDE] | 38%
O=C(NOCc1ccc(F)cc1)c1cc(Br)c(Br)[nH]1 | 21.7%

Now for another entry.
Req: Using known records, supply inhibition at 50 µg/mL for "O=C(NOCc1ccccc1Cl)c1cc(Br)c(Br)[nH]1"
Resp: 13.6%

---

# System: Fusarium graminearum
# assay.info: Antimicrobial activity against Gibberella zeae at 50 ug/mL by mycelium growth rate method
# Type: functional
measure.name: inhibition at 50 µg/mL (%)
Give the number; % is assumed, so skip it.

O=C(NOCc1cccc(F)c1)c1cc(Br)c(Br)[nH]1 | 4.5
O=C(NOCc1ccccc1)c1cc(Br)c(Br)[nH]1 | 9.1
O=C(NOCc1ccc(Cl)c(Cl)c1)c1cc(Br)c(Br)[nH]1 | 17.4
N#Cc1ccccc1CONC(=O)c1cc(Br)c(Br)[nH]1 | 14.7

Req: Using known records, supply inhibition at 50 µg/mL for "N#Cc1ccc(CONC(=O)c2cc(Br)c(Br)[nH]2)cc1"
Resp: 20.6

Req: Using known records, supply inhibition at 50 µg/mL for "C#CCOc1ccc(CON(C)C(=O)c2cccn2C)cc1OC"
Resp: 20

Req: Using known records, supply inhibition at 50 µg/mL for "O=C(NOCc1ccc(Cl)cc1Cl)c1cc(Br)c(Br)[nH]1"
Resp: 11.8

Req: Using known records, supply inhibition at 50 µg/mL for "N#Cc1c[nH]cc1-c1cccc(Cl)c1Cl"
Resp: 100

Req: Using known records, supply inhibition at 50 µg/mL for "CO/C=C(/C(=O)OC)c1ccccc1CONC(=O)c1[nH]c(Br)c(Br)c1Br"
Resp: 13.6

Req: Using known records, supply inhibition at 50 µg/mL for "C#CCOc1ccc(CONC(=O)c2ccc[nH]2)cc1OC"
Resp: 9.1

Req: Using known records, supply inhibition at 50 µg/mL for "O=C(NOCc1ccc(Br)cc1)c1cc(Br)c(Br)[nH]1"
Resp: 2.9

---

# Tested on: Fusarium graminearum
# assay.info: Antimicrobial activity against Gibberella zeae at 50 ug/mL by mycelium growth rate method
# Type: functional
measure.name: inhibition at 50 µg/mL (%)
Give the number; % is assumed, so skip it.

Use these answered entries as a reference point.
O=C(NOCc1ccc(F)cc1)c1cc(Cl)c(Cl)[nH]1 | 19.5
N#Cc1cccc(CONC(=O)c2cc(Br)c(Br)[nH]2)c1 | 8.8
O=C(NOCc1ccc2c(c1)OCO2)c1cc(Br)c(Br)[nH]1 | 14.7

Req: Using known records, supply inhibition at 50 µg/mL for "C#CCOc1ccc(CONC(=O)c2[nH]c(Br)c(Br)c2Br)cc1OC"
Resp: 9.1

---

# Tested on: Fusarium graminearum
# assay.info: Antimicrobial activity against Gibberella zeae at 50 ug/mL by mycelium growth rate method
# Assay type: functional
measure.name: inhibition at 50 µg/mL (%)
Give the number; % is assumed, so skip it.

Use these answered entries as a reference point.
CO/C=C(/C(=O)OC)c1ccccc1CONC(=O)c1ccc[nH]1 | 8.5
O=C(NOCc1ccccc1F)c1cc(Br)c(Br)[nH]1 | 18.2
CO/C=C(/C(=O)OC)c1ccccc1CONC(=O)c1cc(Cl)c(Cl)[nH]1 | 21.1
CO/C=C(/C(=O)OC)c1ccccc1CONC(=O)c1cc(Br)c(Br)[nH]1 | 0
C#CCOc1ccc(CONC(=O)c2cc(Cl)c(Cl)[nH]2)cc1OC | 21.1
C#CCOc1ccc(CONC(=O)c2cc(Br)c(Br)[nH]2)cc1OC | 8.7
O=C(NOCc1cccc(Cl)c1)c1cc(Br)c(Br)[nH]1 | 17.4
O=C(NOCc1ccc([N+](=O)[O-])cc1)c1cc(Br)c(Br)[nH]1 | 13

Req: Using known records, supply inhibition at 50 µg/mL for "O=C(NOCc1ccc(F)cc1)c1ccc[nH]1"
Resp: 7

Req: Using known records, supply inhibition at 50 µg/mL for "COc1ccc(CONC(=O)c2cc(Br)c(Br)[nH]2)cc1OC"
Resp: 4.6

Req: Using known records, supply inhibition at 50 µg/mL for "C#CCOc1ccc(CON(C)C(=O)c2ccc[nH]2)cc1OC"
Resp: 0

Req: Using known records, supply inhibition at 50 µg/mL for "O=C(NOCc1ccc(F)cc1)c1[nH]c(Br)c(Br)c1Br"
Resp: 15.5
